# System: SW1573 (Lung Adenocarcinoma);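 further: after 72 h of two-drug dosing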
# assay_protocol: Bliss excess, mean over the matrix (fraction); higher = more synergy
recorded_endpoint: Bliss excess
Give bare numbers.

Look over these answered cases.
[[record]]
compound = "CC1(C)CCC(CN2CCN(c3ccc(C(=O)NS(=O)(=O)c4ccc(NCC5CCOCC5)c([N+](=O)[O-])c4)c(Oc4cnc5[nH]ccc5c4)c3)CC2)=C(c2ccc(Cl)cc2)C1 [Venetoclax] + C[C@@H]1COCCN1C2=NC(=NC(=C2)C3(CC3)[S@](=N)(=O)C)C4=C5C=CNC5=NC=C4 [AZD6738] (first compound max 1 µM, 7x7, partner max 10 µM)"
target_of_assay = "SW1573 (Lung Adenocarcinoma)"
numeric_result = -0.0705

[[record]]
compound = "Cn1cnc2c(F)c(Nc3ccc(Br)cc3Cl)c(C(=O)NOCCO)cc21 [Selumetinib] + CC(C)n1c(=O)n(C)c2cnc3cc(F)c(-c4ccc(OCCCN5CCCCC5)nc4)cc3c21 [AZD1390] (first compound max 10 µM, 7x7, partner max 0.3 µM)"
target_of_assay = "SW1573 (Lung Adenocarcinoma)"
numeric_result = -0.0796


Working through the 5 compounds below one at a time, give Bliss excess for each.
1. COc1nnc2ccc(N3CCC(c4ccc(OCCN5CCN(C)C(=O)[C@H]5C)cc4)CC3)nn12 [AZD5153] + CCN(CCO)CCCOc1ccc2c(Nc3cc(CC(=O)Nc4cccc(F)c4)[nH]n3)ncnc2c1 [AZD2811] (first compound max 1 µM, 7x7, partner max 1 µM)
2. C[C@@H](c1ccc2nccn2c1)n1nnc2ncc(-c3cnn(C)c3)nc21 [Savolitinib] + Cc1c2c(nn1C)CSCc1cc(n(C)n1)CSc1cc(c3ccccc3c1)OCCCc1c(C(=O)O)n(C)c3c-2c(Cl)ccc13 [AZD5991] (first compound max 1 µM, 7x7, partner max 1 µM)
3. CC1(C)CCC(CN2CCN(c3ccc(C(=O)NS(=O)(=O)c4ccc(NCC5CCOCC5)c([N+](=O)[O-])c4)c(Oc4cnc5[nH]ccc5c4)c3)CC2)=C(c2ccc(Cl)cc2)C1 [Venetoclax] + CN(C)CCCOc1ccc(-c2ccc3ncc4c(c3c2)n(C2CCOCC2)c(=O)n4C)cn1 [AZD0156] (first compound max 1 µM, 7x7, partner max 1 µM)
4. CC1(C)CCC(CN2CCN(c3ccc(C(=O)NS(=O)(=O)c4ccc(NCC5CCOCC5)c([N+](=O)[O-])c4)c(Oc4cnc5[nH]ccc5c4)c3)CC2)=C(c2ccc(Cl)cc2)C1 [Venetoclax] + C1CN(CCC1(C(=O)N[C@@H](CCO)C2=CC=C(C=C2)Cl)N)C3=NC=NC4=C3C=CN4 [Capivasertib] (first compound max 1 µM, 7x7, partner max 3 µM)
5. CN(C)CCCOc1ccc(-c2ccc3ncc4c(c3c2)n(C2CCOCC2)c(=O)n4C)cn1 [AZD0156] + C[C@@H]1COCCN1C2=NC(=NC(=C2)C3(CC3)[S@](=N)(=O)C)C4=C5C=CNC5=NC=C4 [AZD6738] (first compound max 1 µM, 7x7, partner max 10 µM)

Result:
1: -0.0609; 2: -0.0475; 3: -0.0553; 4: -0.0428; 5: -0.0315

// each listed compound needs a value for Bliss excess
1. CC(=O)c1c(C)c2cnc(Nc3ccc(N4CCNCC4)cn3)nc2n(C2CCCC2)c1=O [Palbociclib] + Cn1cnc2c(F)c(Nc3ccc(Br)cc3Cl)c(C(=O)NOCCO)cc21 [Selumetinib] (first compound max 10 µM, 7x7, partner max 10 µM)
2. CC(=O)c1c(C)c2cnc(Nc3ccc(N4CCNCC4)cn3)nc2n(C2CCCC2)c1=O [Palbociclib] + CN(CC[C@H](CSC1=CC=CC=C1)NC2=C(C=C(C=C2)S(=O)(=O)NC(=O)C3=CC=C(C=C3)N4CCC(CC4)[C@H](C5=CC=CC=C5C6=CC=C(C=C6)Cl)O)S(=O)(=O)C(F)(F)F)CCO [AZD4320] (first compound max 10 µM, 7x7, partner max 1 µM)
3. Cc1c2c(nn1C)CSCc1cc(n(C)n1)CSc1cc(c3ccccc3c1)OCCCc1c(C(=O)O)n(C)c3c-2c(Cl)ccc13 [AZD5991] + C[C@@H](Nc1cc(F)cc(F)c1)c1cc(C(=O)N(C)C)cc2c(=O)cc(N3CCOCC3)oc12 [AZD8186] (first compound max 1 µM, 7x7, partner max 3 µM)
4. Cn1cnc2c(F)c(Nc3ccc(Br)cc3Cl)c(C(=O)NOCCO)cc21 [Selumetinib] + C[C@@H]1COCCN1C2=NC(=NC(=C2)C3(CC3)[S@](=N)(=O)C)C4=C5C=CNC5=NC=C4 [AZD6738] (first compound max 10 µM, 7x7, partner max 10 µM)
5. Cc1c2c(nn1C)CSCc1cc(n(C)n1)CSc1cc(c3ccccc3c1)OCCCc1c(C(=O)O)n(C)c3c-2c(Cl)ccc13 [AZD5991] + C[C@@H]1COCCN1C2=NC(=NC(=C2)C3(CC3)[S@](=N)(=O)C)C4=C5C=CNC5=NC=C4 [AZD6738] (first compound max 1 µM, 7x7, partner max 10 µM)
6. NC1(C(=O)N[C@@H](CCO)c2ccc(Cl)cc2)CCN(c2ncnc3[nH]ccc23)CC1 [Capivasertib] + Cn1cnc2c(F)c(Nc3ccc(Br)cc3Cl)c(C(=O)NOCCO)cc21 [Selumetinib] (first compound max 10 µM, 7x7, partner max 10 µM)

Result:
1. -0.0288
2. -0.0486
3. -0.0565
4. -0.0587
5. 0.0337
6. -0.0111
